Target sequence: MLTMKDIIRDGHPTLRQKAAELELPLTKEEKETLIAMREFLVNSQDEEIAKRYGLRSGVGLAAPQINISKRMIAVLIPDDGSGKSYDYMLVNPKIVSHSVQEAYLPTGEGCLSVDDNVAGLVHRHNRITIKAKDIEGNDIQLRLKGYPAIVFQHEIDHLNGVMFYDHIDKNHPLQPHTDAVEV
assay.readout: pIC50
Numbers only, as −log10 of the molar value.

// below: answered compounds
smiles_code=CCCC[C@H](CN(O)C=O)C(=O)N1CCC[C@H]1c1nnc(-c2ccc(C)s2)s1 assay_readout=pIC50 recorded_result=8.13
smiles_code=CCCC[C@H](CN(O)C=O)C(=O)N1CCC[C@H]1c1nnc(-c2cccs2)s1 assay_readout=pIC50 recorded_result=8.60

We next turn to a different compound, shown below.
Query block: Can you look up the measured pIC50 of "CCCC[C@H](CN(O)C=O)C(=O)N1CCC[C@H]1c1nnc(-c2ccc(-c3ccccn3)cc2)s1" for me?
Result block: 8.37
